From: PubChem BioAssay

assay.name: S. cerevisiae RM11-1a growth modifiers, primary screen, strain RM11-1a, OD600, basal, 24 h (AID 1177);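 further: cultures grown under basal conditions with no added stressor; test concentration not given here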
recorded.conditions: OD600, 24 h, higher = more signal, called active from +8 up or from −8 down
property.measured: z-score

compound="CCN(CC)c1ccc(N2CC=CC34O[C@@H]5C=CCOC(=O)[C@@H]5[C@H]3C(=O)N(C(C)CO)[C@@H]4C2=O)cc1 (some centres undefined)" property_measured=z-score measured_result=-0.0464
compound="NC(=O)N1C(=O)C2C(C1=O)C1C=C(c3ccc(CO)cc3)C2C(C2CC2)N1Cc1cc2c(cc1Br)OCO2 (centres undefined)" property_measured=z-score measured_result=-1.02
compound=COC(=O)c1c(CC[C@@H](CO)NC(=O)Nc2ccc(OC)cc2)oc(C(=O)Cc2ccccc2)c1C(=O)OC property_measured=z-score measured_result=1.22
compound=COc1ccc([Si](C)(C)[C@@H]2[C@@H](CCn3cc(CCO)nn3)O[C@]3(C(=O)N(Cc4ccc(N5C(=O)c6cccc7cccc5c67)cc4)c4ccccc43)[C@H]2C)cc1 property_measured=z-score measured_result=0.643

###

assay.name: MM1S cell viability effects, profiling panel, calcein-AM fluorescence, 48 h, basal (AID 1165);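 further: viability of MM1S multiple myeloma cells under basal unstimulated conditions; test concentration not given here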
recorded.conditions: higher = more signal
Measured z-score, listed per entry for reference.
property.measured: z-score

compound="CC(C)C(CO)N1C(=O)[C@@H]2[C@H]3C(=O)OCC=C[C@H]3OC23C=CCN(Cc2ccccc2)C(=O)[C@@H]13 (stereo partly drawn)" measured_result=0.33
compound=COCCOC(=O)N1C(=O)[C@@]2(c3cc(C#CC4(O)CCCCCC4)ccc31)[C@H](c1ccccc1OCCO)N1[C@H](c3ccccc3)[C@H](c3ccccc3)OC(=O)[C@H]1[C@@H]2C(=O)Nc1nc2ccccc2s1 measured_result=-2.71
compound=COc1ccc(C(=O)Nc2cccc(CN3C(=O)[C@@]4(O[C@@H](CCO)[C@H]([Si](C)(C)c5ccc(OC)cc5)[C@H]4C)c4ccccc43)c2)cc1 measured_result=-2.7

###

Measured composite Z-score, listed per entry for reference.
assay.name: small-molecule microarray binders of probe aXIP, primary screen, biochemical, NeuroSMM set, 635/667 nm fluorescence (AID 1119);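 further: probe is the protein aXip251-270 applied at 1 µg/mL to compound-printed slides; binding of probe to printed compounds measured as 667 nm fluorescence plus signal to noise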
recorded.conditions: higher = more signal, called active from +8 up or from −8 down
property.measured: composite Z-score

molecule="CC(C)C[C@@H]1NC(=O)[C@@]23C(=O)N[C@@H](Cc4ccccc4)C2[C@H](C)[C@@]2(C)O[C@H]2C3/C=C/CC/C=C/CNC(=O)[C@@H](C)NC1=O (stereo partly specified)" property_measured="composite Z-score" measured_result=-0.162
molecule=CCCCC(=C=CC[C@H](O)c1cccc(OCCO)c1)CCO property_measured="composite Z-score" measured_result=-0.434
molecule=CO[C@H]1O[C@H](CO)[C@@H](OC(=O)Nc2ccccc2)[C@H](OC(=O)Nc2ccc3c(c2)OCO3)[C@H]1OC(=O)Nc1ccc2c(c1)OCO2 property_measured="composite Z-score" measured_result=0.219
molecule=COC(=O)c1c2oc(c1C(=O)OC)C(=O)N[C@@H](C(C)C)Cn1nncc1C1(CCCCC1)NC(=O)N[C@H](CO)CC2 property_measured="composite Z-score" measured_result=0.559
molecule=CO[C@H]1O[C@H](CO)[C@@H](OC(=O)Nc2ccccc2)[C@H](OC(=O)Nc2ccccc2-c2ccccc2)[C@@H]1OC(=O)Nc1ccccc1-c1ccccc1 property_measured="composite Z-score" measured_result=-0.0038
molecule=COCCCNC(=O)[C@@]1(Cc2ccccc2)N=C(c2ccc(OCCCO)cc2)O[C@H]1c1ccccc1N=[N+]=[N-] property_measured="composite Z-score" measured_result=-0.597
molecule=C=C(CCCC)/C(=C/C[C@@H](OC(=O)c1ccncc1)c1ccc(OCCO)cc1)c1cnc2ccccc2c1 property_measured="composite Z-score" measured_result=-0.0966
molecule=C=CCN1C(=O)[C@]2(O[C@H](CCn3cc([C@H](O)c4ccccc4)nn3)[C@@H]([Si](C)(C)c3ccc(OC)cc3)[C@@H]2C)c2cc(N3CCOC3=O)ccc21 property_measured="composite Z-score" measured_result=0.2
molecule="C=CCC(OC(C)=O)[C@@H]1[C@@H](N(Cc2cccc3ccccc23)C(=O)c2cccc3ccccc23)c2cc(OCCCO)ccc2N1C(=O)Cc1ccc(OC)cc1 (stereo partly specified)" property_measured="composite Z-score" measured_result=0.464
molecule=COCCOC(=O)N1C(=O)[C@@]2(c3cc(C#CC4(O)CCCCCC4)ccc31)[C@H](c1ccc(O)cc1)N1[C@H](c3ccccc3)[C@H](c3ccccc3)OC(=O)[C@H]1[C@@H]2C(N)=O property_measured="composite Z-score" measured_result=-0.108
molecule=NCCCCCNC(=O)[C@H]1C[C@H]2C(=O)NCC(=O)N2[C@H]1c1ccc(O)cc1 property_measured="composite Z-score" measured_result=0.696

###

system: Neurogenic locus notch homolog protein 2 (Homo sapiens) (UniProt Q04721)
Sequence (Q04721 whole entry, looked up): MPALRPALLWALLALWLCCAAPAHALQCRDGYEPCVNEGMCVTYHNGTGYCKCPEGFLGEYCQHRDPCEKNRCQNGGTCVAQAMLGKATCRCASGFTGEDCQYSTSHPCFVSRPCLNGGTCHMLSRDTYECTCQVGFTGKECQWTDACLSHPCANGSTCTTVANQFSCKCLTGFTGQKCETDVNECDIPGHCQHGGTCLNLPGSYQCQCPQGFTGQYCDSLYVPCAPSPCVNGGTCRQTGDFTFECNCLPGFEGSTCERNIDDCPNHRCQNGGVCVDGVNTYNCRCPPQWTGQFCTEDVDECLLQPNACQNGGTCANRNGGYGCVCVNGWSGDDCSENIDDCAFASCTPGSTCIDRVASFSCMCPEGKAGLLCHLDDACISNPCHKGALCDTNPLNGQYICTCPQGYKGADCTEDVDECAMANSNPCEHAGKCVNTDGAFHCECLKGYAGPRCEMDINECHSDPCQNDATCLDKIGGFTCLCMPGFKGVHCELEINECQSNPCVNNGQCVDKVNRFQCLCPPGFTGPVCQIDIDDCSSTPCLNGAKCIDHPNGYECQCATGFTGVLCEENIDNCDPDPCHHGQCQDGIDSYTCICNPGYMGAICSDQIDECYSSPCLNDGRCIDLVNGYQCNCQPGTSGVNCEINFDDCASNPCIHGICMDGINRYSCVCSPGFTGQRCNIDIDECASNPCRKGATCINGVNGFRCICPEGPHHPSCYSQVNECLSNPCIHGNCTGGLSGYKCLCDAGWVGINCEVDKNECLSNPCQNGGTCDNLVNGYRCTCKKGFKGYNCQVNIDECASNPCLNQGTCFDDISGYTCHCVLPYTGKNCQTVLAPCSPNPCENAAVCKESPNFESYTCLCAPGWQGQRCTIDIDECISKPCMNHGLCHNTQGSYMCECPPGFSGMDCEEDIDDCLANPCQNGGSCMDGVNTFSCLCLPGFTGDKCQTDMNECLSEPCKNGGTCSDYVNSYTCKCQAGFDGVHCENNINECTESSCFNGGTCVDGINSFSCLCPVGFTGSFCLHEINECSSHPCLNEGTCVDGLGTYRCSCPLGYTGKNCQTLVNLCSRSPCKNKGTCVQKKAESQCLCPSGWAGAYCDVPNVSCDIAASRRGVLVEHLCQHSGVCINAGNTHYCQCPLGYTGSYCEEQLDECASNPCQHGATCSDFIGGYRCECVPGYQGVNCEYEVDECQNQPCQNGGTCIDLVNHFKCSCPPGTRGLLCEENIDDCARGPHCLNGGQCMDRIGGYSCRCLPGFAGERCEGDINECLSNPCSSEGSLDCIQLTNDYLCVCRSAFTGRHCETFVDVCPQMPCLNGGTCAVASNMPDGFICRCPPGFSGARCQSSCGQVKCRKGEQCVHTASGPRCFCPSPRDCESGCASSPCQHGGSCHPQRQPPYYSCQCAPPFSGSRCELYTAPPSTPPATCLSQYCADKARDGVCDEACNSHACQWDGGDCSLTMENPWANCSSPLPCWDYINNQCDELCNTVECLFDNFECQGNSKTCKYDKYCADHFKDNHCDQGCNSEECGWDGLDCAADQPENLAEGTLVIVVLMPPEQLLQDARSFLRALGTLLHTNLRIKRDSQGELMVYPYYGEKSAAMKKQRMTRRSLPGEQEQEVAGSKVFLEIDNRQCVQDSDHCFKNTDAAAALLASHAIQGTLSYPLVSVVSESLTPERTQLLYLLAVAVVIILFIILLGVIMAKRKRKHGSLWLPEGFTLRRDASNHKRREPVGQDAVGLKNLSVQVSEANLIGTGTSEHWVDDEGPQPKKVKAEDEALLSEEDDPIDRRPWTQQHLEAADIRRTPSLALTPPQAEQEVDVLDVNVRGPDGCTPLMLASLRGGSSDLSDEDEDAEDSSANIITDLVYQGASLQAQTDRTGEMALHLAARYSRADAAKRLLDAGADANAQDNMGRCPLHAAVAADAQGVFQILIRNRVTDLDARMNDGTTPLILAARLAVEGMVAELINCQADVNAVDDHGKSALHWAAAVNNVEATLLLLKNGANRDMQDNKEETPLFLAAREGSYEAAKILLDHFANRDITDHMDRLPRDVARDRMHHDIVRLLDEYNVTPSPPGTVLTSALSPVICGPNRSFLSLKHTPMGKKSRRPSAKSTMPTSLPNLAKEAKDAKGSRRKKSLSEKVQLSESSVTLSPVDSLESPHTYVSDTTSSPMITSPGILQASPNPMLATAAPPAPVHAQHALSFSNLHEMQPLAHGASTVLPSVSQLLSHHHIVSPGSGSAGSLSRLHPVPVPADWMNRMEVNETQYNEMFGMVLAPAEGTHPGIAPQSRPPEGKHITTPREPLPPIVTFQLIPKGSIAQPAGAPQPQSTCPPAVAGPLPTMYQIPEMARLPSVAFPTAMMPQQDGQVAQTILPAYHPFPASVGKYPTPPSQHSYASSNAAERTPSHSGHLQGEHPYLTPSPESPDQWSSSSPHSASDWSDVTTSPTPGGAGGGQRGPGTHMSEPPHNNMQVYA
assay.name: Notch2 binders on small-molecule microarrays, primary screen, biochemical, small-molecule microarray, 635 nm fluorescence, stem cell growth factors (AID 1073)
recorded.conditions: Notch2 binding, higher = more signal
property.measured: composite z-score

compound=COCCOC(=O)N1C(=O)[C@@]2(c3cc(C#CCNC(N)=O)ccc31)[C@H](C(=O)NC[C@H](O)c1ccccc1)[C@H]1C(=O)O[C@H](c3ccccc3)[C@H](c3ccccc3)N1[C@@H]2c1ccc(O)cc1 system="Neurogenic locus notch homolog protein 2 (Homo sapiens) (UniProt Q04721)" measured_result=-0.26
compound=CC(C)C(=C=CC[C@@H](O)c1ccc(CO)o1)CCO system="Neurogenic locus notch homolog protein 2 (Homo sapiens) (UniProt Q04721)" measured_result=-0.298
compound=C=C(COC)/C(=C/C[C@H](OC(C)=O)c1ccc(CO)o1)c1cnc2ccccc2c1 system="Neurogenic locus notch homolog protein 2 (Homo sapiens) (UniProt Q04721)" measured_result=1.4
compound="CC(C)C(CO)N1C(=O)[C@@H]2[C@H]3C(=O)OCC=C[C@H]3OC23C=CCN(Cc2ccccc2)C(=O)[C@@H]13 (some centres undefined)" system="Neurogenic locus notch homolog protein 2 (Homo sapiens) (UniProt Q04721)" measured_result=-0.834
compound="CC(C)CCC[C@@H](C)[C@H]1CC[C@@]2(C)C3=C(CC[C@]12C)[C@@]1(C)CC[C@H](OC(=O)CCl)C(C)(C)C1CC3 (some centres undefined)" system="Neurogenic locus notch homolog protein 2 (Homo sapiens) (UniProt Q04721)" measured_result=0.753
compound=C=CC[C@]1(C(=O)N2CCCCC2)COC(c2ccc(OCCCO)cc2)=N1 system="Neurogenic locus notch homolog protein 2 (Homo sapiens) (UniProt Q04721)" measured_result=-1.58
compound=CCCCCCC#C[Si](O[C@H](c1ccccc1)c1cn(Cc2ccccc2)nn1)(C(C)C)C(C)C system="Neurogenic locus notch homolog protein 2 (Homo sapiens) (UniProt Q04721)" measured_result=0.433
compound="C=CCC(OC(C)=O)[C@@H]1[C@@H](N(Cc2cc3ccccc3o2)C(=O)c2ccc(-c3ccccc3)cc2)c2cc(OCCCO)ccc2N1C(=O)c1ccc(-c2ccccc2)cc1 (some centres undefined)" system="Neurogenic locus notch homolog protein 2 (Homo sapiens) (UniProt Q04721)" measured_result=0.11
compound=C=CCOC(=O)[C@H]1[C@@H]2C(=O)O[C@@H](c3ccccc3)[C@@H](c3ccccc3)N2[C@@H](c2ccc(OCCOC(=O)[C@H]3C[C@H]4C(=O)N5CCC[C@H]5C(=O)N4[C@H]3c3cccc(OCCO)c3)cc2)[C@]12C(=O)Nc1ccccc12 system="Neurogenic locus notch homolog protein 2 (Homo sapiens) (UniProt Q04721)" measured_result=0.0945
compound="C=CCC(OC(C)=O)[C@@H]1[C@@H](N(Cc2ccc(-c3cccc(C(F)(F)F)c3)o2)C(=O)c2ccc(-c3ccccc3)cc2)c2cc(OCCCO)ccc2N1C(=O)Cc1ccc(OC)cc1 (some centres undefined)" system="Neurogenic locus notch homolog protein 2 (Homo sapiens) (UniProt Q04721)" measured_result=-0.654
compound=CO[C@H]1O[C@H](CO)[C@@H](OC(=O)Nc2ccccc2)[C@H](OC(=O)Nc2ccccc2-c2ccccc2)[C@@H]1OC(=O)Nc1ccccc1-c1ccccc1 system="Neurogenic locus notch homolog protein 2 (Homo sapiens) (UniProt Q04721)" measured_result=1.49
compound=C=CC[C@]1(C(=O)N(C)C)N=C(c2ccc(OCCCO)cc2)O[C@H]1c1ccccc1CN=[N+]=[N-] system="Neurogenic locus notch homolog protein 2 (Homo sapiens) (UniProt Q04721)" measured_result=1.38
compound=COc1ccc(CCNC(=O)[C@@]2(Sc3ccc(C)cc3)CC(=O)N(Cc3ccccc3)[C@@H]2c2ccc(CO)cc2I)cc1 system="Neurogenic locus notch homolog protein 2 (Homo sapiens) (UniProt Q04721)" measured_result=-0.0768
compound=COc1ccc([Si](C)(C)[C@H]2[C@H](CC(=O)N(CCO)Cc3ccccc3)O[C@@]3(C(=O)N(Cc4cccc(N5C(=O)COc6ccccc65)c4)c4ccccc43)[C@@H]2C)cc1 system="Neurogenic locus notch homolog protein 2 (Homo sapiens) (UniProt Q04721)" measured_result=0.703
